assay: qHTS of pediatric cancer cell lines to identify multiple opportunities for drug repurposing: Confirmatory screen for BT-37 cells (AID 1347117);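 further: viability measured after 48 h of compound exposure; plate controls were DMSO for no effect and bortezomib for full effect; nearly all actives have a fitted effect of over 55% in size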
measurement_context: BT-37 pediatric cancer cells, viability; series mostly up to 45.9 µM
Inconclusive results are not listed. Active and inactive are the calls of the source. The call rests on the fitted dose curve; in most records, active means well fitted cell-killing curve with a large enough effect; inconclusive means small, poorly fitted or top-dose-only effect; inactive means no such curve, though single readings can be large or run the other way.
readout_kind: activity change, negative = cytotoxic

INSERT INTO results (compound, result) VALUES
  ('CCCCCCCCCCCCOCCOCCOCCOCCOCCOCCOCCOCCOCCO', 'inactive'),
  ('COc1ccc(C(=O)c2ccccc2)c(O)c1', 'inactive'),
  ('O=[N+]([O-])c1ccc(/C=N\O)o1', 'inactive'),
  ('CCN[C@@H]1C[C@H](N)[C@@H](OC2OC(CN)=CCC2N)[C@H](O)[C@H]1O[C@H]1OC[C@](C)(O)[C@H](NC)[C@H]1O (stereo not given in full)', '4.53% [at 0.556 µM] (inactive)'),
  ('CCCCCCCCCCC[C@@H](C[C@@H]1OC(=O)[C@H]1CCCCCC)OC(=O)[C@H](CC(C)C)NC=O', 'inactive');
